B1: Hairpin Ribozyme (parent)
chain: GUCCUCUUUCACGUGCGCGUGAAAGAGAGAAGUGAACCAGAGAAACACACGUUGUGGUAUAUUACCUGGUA

# Variants of: B1
# experiment_summary: self-cleavage, relative activity (ratio to wild type); higher = more cleavage; co-transcriptional
Classification field. Basis: self-cleavage. Definitions: low-valued (below 0.2), mid-valued (0.2 to below 0.3), high-valued (0.3 or more)

1. U9G U33G	low-valued
2. G19A	high-valued
3. G27U G34C	high-valued
4. G15C A22G	high-valued
5. U8A G69U	mid-valued
6. G29A C38U	low-valued
7. C65A G69A	low-valued
8. C18A G27A	high-valued
9. U20C G51C	high-valued
10. C3A A30U	low-valued
11. U33C A71U	low-valued
12. U2G A44U	low-valued
13. G40C A59G	low-valued
14. G15A U52C	high-valued
15. A49U C65U	low-valued
16. U9A A22U	high-valued
17. A39C G69U	low-valued
18. U20G A30C	low-valued
19. A35C C37A	mid-valued
20. G1A C16U	mid-valued
21. G13A U67A	mid-valued
22. U52A G68A	high-valued
23. U9A C10G	high-valued
24. G40C A61G	low-valued
25. U33G C66A	low-valued
26. G19U U67C	mid-valued
27. C16U G42C	high-valued
28. A11C U20C	high-valued
29. C10U A64G	high-valued
30. A35G A44G	low-valued
31. U9G A23G	high-valued
32. U2G G19C	high-valued
33. U5A G29U	low-valued
34. G13A U62C	mid-valued
35. A11C U55G	mid-valued
36. C3G A39G	low-valued
37. U7C A59G	low-valued
38. G34A A64C	high-valued
39. U2C C46G	low-valued
40. C16U G34A	high-valued
41. G34A A36C	high-valued
42. G1C C12U	mid-valued
43. C3U C16U	high-valued
44. A45C G69A	low-valued
45. G19A C50A	mid-valued
